Target: T1, ヒト組織因子経路インヒビター (human TFPI) (human, UniProt P10646 29-304, limits assumed)
T1 construct: Coated on Maxisorp plates (ELISA) or amine-coupled to a CM5 chip (Biacore); also called ヒトTFPI; hTFPI
T1 sequence (looked up): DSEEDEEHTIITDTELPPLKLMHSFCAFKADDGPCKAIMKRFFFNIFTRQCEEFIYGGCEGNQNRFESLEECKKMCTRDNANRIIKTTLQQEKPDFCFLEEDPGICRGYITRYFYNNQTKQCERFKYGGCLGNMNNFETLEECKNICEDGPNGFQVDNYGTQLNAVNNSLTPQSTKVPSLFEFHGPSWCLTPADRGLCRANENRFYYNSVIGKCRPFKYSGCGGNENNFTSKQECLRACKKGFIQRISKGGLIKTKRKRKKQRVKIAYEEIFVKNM
Assay: ELISA, Fab in bacterial lysate on human TFPI-coated plate
parameter: binding result

Query: Respond only with binding result recorded for TP-2A6 (Fab, V domains shown, Human Fab (HuCal Gold), made in E. coli TG1) VH: QVQLVESGGGLVQPGGSLRLSCAASGFTFSRYAMSWVRQAPGKGLEWVSSIISSSSETYYADSVKGRFTISRDNSKNTLYLQMNSLRAEDTAVYYCARLMGYGHYYPFDYWGQGTLVTVSS VL: DIELTQPPSVSVAPGQTARISCSGDKIGSKYVYWYQQKPGQAPVLVIYDSNRPSGIPERFSGSNSGNTATLTISGTQAEDEADYYCASYDSIYSYWVFGGGTKLTVLG
Result: binds

Query: Respond only with binding result recorded for TP-2A10 (Fab, V domains shown, Human Fab (HuCal Gold), made in E. coli TG1) VH: QVQLVESGGGLVQPGGSLRLSCAASGFTFTSYSMNWVRQAPGKGLEWVSAISYTGSNTHYADSVKGRFTISRDNSKNTLYLQMNSLRAEDTAVYYCARAFLGYKESYFDIWGQGTLVTVSS VL: DIELTQPPSVSVAPGQTARISCSGDKLGKKYVHWYQQKPGQAPVLVIYGDDKRPSGIPERFSGSNSGNTATLTISGTQAEDEADYYCQAWGSISRFVFGGGTKLTVLG
Result: binds

Query: Respond only with binding result recorded for TP-3A2 (Fab, V domains shown, Human Fab (HuCal Gold), made in E. coli TG1) VH: QVQLVESGGGLVQPGGSLRLSCAASGFTFSNYYLSWVRQAPGKGLEWVSGISYNGSSTNYADSVKGRFTISRDNSKNTLYLQMNSLRAEDTAVYYCARMWRYSLGADSWGQGTLVTVSS VL: DIELTQPPSVSVAPGQTARISCSGDNIGSRYAYWYQQKPGQAPVVVIYDDSDRPSGIPERFSGSNSGNTATLTISGTQAEDEADYYCAAYTFYARTVFGGGTKLTVLG
Result: binds
